protocol_details: Solubility of Compound 1 polymorphs in aqueous systems, buffer solutions and biorelevant media
Format: physicochemical
condition_details: FcSSIF, pH 5.0; Form C Lot: a, Form A Lot: b

| compound | Aqueous Solubility |
| --- | --- |
| CNc1cc(Nc2cccn(-c3ccccn3)c2=O)nc2c(C(=O)N[C@@H]3CC[C@H]3OC)cnn12 [Form C] | 41 µg/mL |

* * *

protocol_details: Solubility of Compound 1 polymorphs in aqueous systems, buffer solutions and biorelevant media
Type: physicochemical
condition_details: thermodynamic from solid; FeSSIF (pH 5.03), pH at 48 Hours 5.03; average of two runs
measure_name: solubility at 48 h (µg/mL)

| compound | unit_label | reported_measurement |
| --- | --- | --- |
| CNc1cc(Nc2cccn(-c3ccccn3)c2=O)nc2c(C(=O)N[C@@H]3CC[C@H]3OC)cnn12 [Compound 1] | µg/mL | 41 |

Entry source: patent US20250221997A1
